Tested on: SNB-19 CNS
PROTOCOL_SUMMARY: NCI tumour cell line growth inhibition, 48 h
Quick list: TGI per entry.

Recorded results for 8 compounds are shown here.
COC(=O)/C=C(\C(=O)OC)C1C(=O)Oc2c(C)c(=O)c3ccccc3n21 (stereo unspecified) :: > 100 µM
O=C(Nc1ccccc1)c1cc(S(=O)(=O)NC2=NC(c3ccccc3)c3cc(Cl)ccc3N2)c(SSc2cc(Cl)c(C(=O)Nc3ccccc3)cc2S(=O)(=O)NC2=NC(c3ccccc3)c3cc(Cl)ccc3N2)cc1Cl (stereo unspecified) :: > 100 µM
Cc1ccc(C2SCC(=O)N2c2ccc(-n3c(-c4ccccc4)nc4ccccc4c3=O)cc2)cc1 (stereo unspecified) :: > 100 µM
CC(=O)c1ccccc1NP(=O)(c1ccccc1)c1ccccc1 :: > 100 µM
Cn1c(I)c(C#CCO[Si](C)(C)C(C)(C)C)c(=O)[nH]c1=O :: > 100 µM
CN1CCc2c([nH]c3ccccc23)C1 :: > 100 µM
COc1cc(Nc2ncccc2C(=O)NCc2cn(Cc3cccc(Oc4ccccc4)c3)nn2)cc(OC)c1 :: > 100 µM
CC(=O)OC1/C=C(\C)C(OC(C)=O)C/C=C(/C)CCC2C(/C=C/C1=O)C2(C)C (stereo unspecified) :: > 100 µM

Query: Answer with reported TGI of `C[C@H]1[C@H]2[C@H]3CC[C@@H]4[C@@]5(C)CC[C@H](O)C(C)(C)[C@@H]5CC[C@@]4(C)[C@]3(C)C[C@H](O)[C@@]2(C)C[C@H]2O[C@]21C`
Response: 49.7 µM

Query: Quote TGI reported for `COc1ccc(/C=C2\CCNC2=O)cc1` please.
Response: > 100 µM

Query: Specify reported TGI for the compound shown: `CCOC(=O)C1=CN(C)C=C(C(=O)OCC)C1c1cc(Br)c(OCC)c(OC)c1`
Response: > 100 µM

Query: Using known records, supply TGI for `CC12C/C(=C\c3ccccc3)C(=O)C3C1CCCC32`
Response: > 100 µM

Query: State, in one line, measured TGI of `Cc1[nH]c(=O)nc2nc3ccc(Cl)cc3c(NCCNCCO)c12`
Response: 21.4 µM

Query: Give TGI for CSC1=Nc2c(c(C)c(C)n2COC(CO)CO)C2=NC(=O)C(C)N12 (stereo unspecified)
Response: > 100 µM
